Target: T1, hDLL3 ECD-Avi-Fckih (biotinylated extracellular domain of human DLL3, residues 27 to 466, Avi-tag, 3C site, … (human, UniProt Q9NYJ7 27-466, biotinylated at the Avi-tag))
T1 construct: The make-up of the second Fc chain of the knob-into-hole pair is not described; also called bio-DLL3; recombinant human DLL3; not shown: Avi-tag, 3C protease recognition site and Fc knob into hole
T1 sequence: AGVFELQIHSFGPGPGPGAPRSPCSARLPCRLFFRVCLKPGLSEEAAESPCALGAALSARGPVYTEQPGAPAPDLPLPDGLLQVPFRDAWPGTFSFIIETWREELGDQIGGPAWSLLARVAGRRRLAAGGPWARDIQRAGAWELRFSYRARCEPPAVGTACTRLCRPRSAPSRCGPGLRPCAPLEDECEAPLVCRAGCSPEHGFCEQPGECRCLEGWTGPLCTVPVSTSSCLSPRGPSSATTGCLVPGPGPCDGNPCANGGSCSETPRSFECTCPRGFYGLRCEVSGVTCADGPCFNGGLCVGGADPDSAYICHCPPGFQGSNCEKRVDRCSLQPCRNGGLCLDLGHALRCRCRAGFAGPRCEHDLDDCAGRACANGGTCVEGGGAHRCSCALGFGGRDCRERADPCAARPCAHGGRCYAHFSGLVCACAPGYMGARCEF
Test: SPR (ProteOn), biotinylated hDLL3 ECD-Avi-Fckih on chip, DARPin as analyte, 1:1 Langmuir fit
Metric: kon (M⁻¹ s⁻¹)
Response body: numeric value in M⁻¹ s⁻¹, unit text excluded.

Q: Identify the reported kon for the following entry. MAM279 (two domain ankyrin repeat protein, N-terminal His6-TEV tag) (designed binder, Cleavage of the tag is not reported; also called 2D DARPin) MRGSHHHHHHENLYFQDLGKKLLEAARAGQDDEVRELLKAGADVNAKDYFSHTPLHLAARNGHLKIVEVLLKAGADVNAKDFAGKTPLHLAADAGHLEIVEVLLKAGADVNAQDIFGKTPADIAADAGHEDIAEVLQKAAGSPTPTPTTPTPTPTTPTPTPTGSDLGKKLLAAAAQGQDDEVRELLKAGANVNAKDLFGYTPLHLAAWRGHLEIVEVLLKAGADVNAKDAAGETPLHLAAWFGHLEIVEVLLKAGADVNAQDLQGKTPADLAAKEGHEDIAEVLQKAA
Result: 23300

Q: Identify the reported kon for the following entry. MAM283 (two domain ankyrin repeat protein, N-terminal His6-TEV tag) (designed binder, also called 2D DARPin) MRGSHHHHHHENLYFQDLGKKLLEAARAGQDDEVRELLKAGADVNAKDYFSHTPLHLAARNGHLKIVEVLLKAGADVNAKDFAGKTPLHLAADAGHLEIVEVLLKAGADVNAQDIFGKTPADIAADAGHEDIAEVLQKAAGSPTPTPTTPTPTPTTPTPTPTGSDLGKKLLAAAADGQDDEVRELLQAGADVNAKDLFGYTPLHLAAWRGHLEIVEVLLEAGADVNAKDAAGETPLHLAAWFGHLEIVEVLLEAGADVNAQDVQGKTPADLAAKEGHEDIAEVLQQAA
Result: 18800

Q: Identify the reported kon for the following entry. MAM282 (two domain ankyrin repeat protein, N-terminal His6-TEV tag) (designed binder, also called 2D DARPin) MRGSHHHHHHENLYFQDLGKKLLEAARAGQDDEVRELLKAGADVNAKDYFSHTPLHLAARNGHLKIVEVLLKAGADVNAKDFAGKTPLHLAADAGHLEIVEVLLKAGADVNAQDIFGKTPADIAADAGHEDIAEVLQKAAGSPTPTPTTPTPTPTTPTPTPTGSDLGKKLLAAAREGQDDEVRELLKAGADVNAKDIWGQTPLHIAAWFGHLEIVEVLLKAGADVNAKDQTGHTPLHLAAKFGHLEIVEVLLKAGADVNAQDLLGRTPADLAAEEGHEDIAEVLQKAA
Result: 12500

Reference source for all entries: patent US20250332297A1
